Property: IC50; scope: individual compounds
Tested on: MCF7
procedure.summary: MTT cell viability assay, MCF7
Type: cell-based
assay.setup: Homo sapiens, MCF7, 48h treatment, mean ± S.D.
Just the number please, in nM, no unit attached.

Here are 3 compounds together with their reported answers.
Request: Fill in: IC50 of COc1cccc2c1C(=O)c1c(O)c3c(c(O)c1C2=O)C[C@@](O)(C(=O)CO)C[C@@H]3O[C@H]1C[C@H](N)[C@H](O)[C@H](C)O1 [doxo, doxorubicin, reference compound] is ___
Result: 4500

Request: What do you get for CCOc1c2c(c3ccc([N+](=O)[O-])cn13)SSSSS2 [3^NO2] ?
Result: 3210

Request: What do you get for CCOc1c2c(c3ccc(C=O)cn13)SSSSS2 [3^CHO] ?
Result: 1700

More entries:
Request: Fill in: IC50 of Cc1c2c(c3ccccn13)SSSSS2 [2^Me] is ___
Result: 4770

Request: What do you get for CCOc1c2c(c3ccccn13)SSSSS2 [compound 1] ?
Result: 2680

Request: What do you get for OCCOc1c2c(c3ccccn13)SSSSS2 [2^Gly] ?
Result: 1130

* * *

Property: IC50; scope: individual compounds
System: A549
procedure.summary: MTT cell viability assay, A549
Type: cell-based
assay.setup: Homo sapiens, A549, 48h treatment, mean ± S.D.
Just the number please, in nM, no unit attached.

Request: Fill in: IC50 of CCOc1c2c(c3ccc(C=O)cn13)SSSSS2 [3^CHO] is ___
Result: 1030

Request: What do you get for OCCOc1c2c(c3ccccn13)SSSSS2 [2^Gly] ?
Result: 790

Request: What do you get for CCOc1c2c(c3ccc([N+](=O)[O-])cn13)SSSSS2 [3^NO2] ?
Result: 3220

Request: What do you get for COc1cccc2c1C(=O)c1c(O)c3c(c(O)c1C2=O)C[C@@](O)(C(=O)CO)C[C@@H]3O[C@H]1C[C@H](N)[C@H](O)[C@H](C)O1 [doxo, doxorubicin, reference compound] ?
Result: 1500

Request: What do you get for CCOc1c2c(c3ccccn13)SSSSS2 [compound 1] ?
Result: 1540

Request: What do you get for Cc1c2c(c3ccccn13)SSSSS2 [2^Me] ?
Result: 2540

* * *

Tested on: MCF7, MDA-MB-231, A549, and HCT116 cells
procedure.summary: MTT cell viability assay, summary across the cell line panel
Type: cell-based, human
assay.setup: 48 h treatment, across tested cell lines
readout.kind: cytotoxic potency (in words)

Request: Fill in: cytotoxic potency (in words) of `Cc1c2c(c3ccccn13)SSSSS2` is ___
Result: noteworthy efficacy

Request: What do you get for `CCOc1c2c(c3ccccn13)SSSSS2` ?
Result: noteworthy efficacy

Request: What do you get for `CCOc1c2c(c3ccc([N+](=O)[O-])cn13)SSSSS2` ?
Result: noteworthy efficacy
